Known Ki of a selection of molecules
molecular target: CCR2 (Homo sapiens); construct: THP-1 human monocytic leukemic cell line, which expresses endogenous CCR2; endogenous in cells; host or cells: human peripheral blood mononuclear cells, human monocytes or THP-1 cells; experiment: CCR2 binding: antagonism of 125I-MCP-1 binding (human PBMC / THP-1 whole cell); conditions: n = 1 unless otherwise noted
Enter your answer as a number in nM; do not include the unit.

C[C@@H]1CC=C(C(=O)O)[C@@](C)(c2ccc(Cl)c(C(F)(F)F)c2)C1 (racemic) [Example 1-13]	11
Cc1cc(C)cc([C@@]2(C)C[C@H](C)CC=C2C(=O)O)c1 (racemic)	300
C[C@@H]1CC=C(C(=O)NS(C)(=O)=O)[C@@](C)(c2ccc(Cl)c(Cl)c2)C1 (racemic)	5400

Now turn to the next molecule.
Q: Sample Cc1cc([C@@]2(C)C[C@H](C)CC=C2C(=O)O)cc(C)c1Cl (racemic) — what was its Ki?
A: 130

====

biological target: CCR2 (Homo sapiens, UniProt P41597); construct: THP-1 human monocytic leukemic cell line, which expresses endogenous CCR2; endogenous in cells; host or cells: human peripheral blood mononuclear cells, human monocytes or THP-1 cells; experiment: CCR2 binding: antagonism of 125I-MCP-1 binding (human PBMC / THP-1 whole cell); conditions: n = 1 unless otherwise noted
Sequence (P41597 1-360 isoform P41597-2): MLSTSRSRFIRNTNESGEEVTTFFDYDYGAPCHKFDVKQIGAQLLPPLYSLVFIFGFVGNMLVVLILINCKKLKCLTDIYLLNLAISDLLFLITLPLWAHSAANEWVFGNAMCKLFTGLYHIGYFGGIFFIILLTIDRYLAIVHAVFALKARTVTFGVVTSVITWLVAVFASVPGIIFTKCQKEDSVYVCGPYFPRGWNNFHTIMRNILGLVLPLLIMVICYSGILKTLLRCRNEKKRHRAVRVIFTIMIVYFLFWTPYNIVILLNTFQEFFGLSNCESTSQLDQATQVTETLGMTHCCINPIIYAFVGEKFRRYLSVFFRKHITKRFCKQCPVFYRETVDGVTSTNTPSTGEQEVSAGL
Known Ki of a selection of molecules
Enter your answer as a number in nM; do not include the unit.

Examples with answers:
CC1(c2cccc(C(F)(F)F)c2)CCCC=C1C(=O)O (racemic) [Example 1-10]	1600
C[C@]1(c2ccc(Cl)c(C(F)(F)F)c2)C[C@H](OCc2ccccc2)CC=C1C(=O)O (racemic) [Example 12]	2500
C[C@]1(c2ccc(Cl)c(Cl)c2)C[C@H](c2ccccc2)CC=C1C(=O)O (racemic) [Example 1-06]	3900
CC1(c2ccc(Cl)cc2)CCCC=C1C(=O)O (racemic) [Example 1-02]	3400

Q: Sample Cc1ccc(C2(C)CCCC=C2C(=O)O)cc1C (racemic) [Example 1-08] — what was its Ki?
A: 8200
